Molecular target: CD73 (Calu-6 cells) (Homo sapiens)
Construct: endogenous in cells
Sequence (P21589 27-549): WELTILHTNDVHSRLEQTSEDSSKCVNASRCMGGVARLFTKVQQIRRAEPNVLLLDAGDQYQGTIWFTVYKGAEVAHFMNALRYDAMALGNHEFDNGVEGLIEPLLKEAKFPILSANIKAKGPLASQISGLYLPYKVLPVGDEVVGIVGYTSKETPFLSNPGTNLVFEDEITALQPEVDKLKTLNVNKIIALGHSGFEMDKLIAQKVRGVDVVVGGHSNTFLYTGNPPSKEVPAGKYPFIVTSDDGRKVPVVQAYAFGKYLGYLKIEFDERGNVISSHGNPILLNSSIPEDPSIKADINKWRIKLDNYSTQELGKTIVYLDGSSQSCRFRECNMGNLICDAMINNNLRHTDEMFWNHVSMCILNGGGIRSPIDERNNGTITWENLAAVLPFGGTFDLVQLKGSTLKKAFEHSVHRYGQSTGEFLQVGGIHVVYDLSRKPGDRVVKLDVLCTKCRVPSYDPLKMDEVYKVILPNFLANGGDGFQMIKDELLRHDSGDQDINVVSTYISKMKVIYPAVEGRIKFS
Experiment: Enzymatic activity detection at the cellular level (Calu-6 cells, AMP substrate, Cell-titer Glo luminescence)
Conditions: enzymatic IC50 at the Calu-6 cell level, 30 min pre-incubation, 120 min at 37° C.
pIC50: −log10 of the molar value.
Some compounds, each annotated with its measured pIC50.

{"compound": "COc1ccc(C#C[C@H]2C[C@@H]2c2cc(-c3c[nH]c(=O)[nH]c3=O)nnc2Cl)cc1", "pIC50": 8.51}
{"compound": "O=c1[nH]cc(-c2cc(C3CC3c3cccc(F)c3F)c(Cl)nn2)c(=O)[nH]1 (stereo not shown)", "pIC50": 8.15}
{"compound": "Cc1ccc(C2CC2c2cc(-c3c[nH]c(=O)[nH]c3=O)nnc2Cl)cc1F (stereo not shown)", "pIC50": 8.33}
{"compound": "Cc1nnc(-c2c[nH]c(=O)[nH]c2=O)cc1[C@H]1C[C@@H]1C=C(F)F", "pIC50": 7.34}
